Target: T1, soluble human insulin receptor-immunoglobulin heavy chain chimera (sIR-Fc; Bass et al., 1996) (human, UniProt P06213-2 28-944)
T1 construct: extracellular domain; also called soluble IR (Bass construct); Eu3+-sIR-Fc; not shown: immunoglobulin heavy chain constant domains per Bass et al., 1996
T1 sequence (P06213 other isoform, or with tags, fused parts or gaps mutant): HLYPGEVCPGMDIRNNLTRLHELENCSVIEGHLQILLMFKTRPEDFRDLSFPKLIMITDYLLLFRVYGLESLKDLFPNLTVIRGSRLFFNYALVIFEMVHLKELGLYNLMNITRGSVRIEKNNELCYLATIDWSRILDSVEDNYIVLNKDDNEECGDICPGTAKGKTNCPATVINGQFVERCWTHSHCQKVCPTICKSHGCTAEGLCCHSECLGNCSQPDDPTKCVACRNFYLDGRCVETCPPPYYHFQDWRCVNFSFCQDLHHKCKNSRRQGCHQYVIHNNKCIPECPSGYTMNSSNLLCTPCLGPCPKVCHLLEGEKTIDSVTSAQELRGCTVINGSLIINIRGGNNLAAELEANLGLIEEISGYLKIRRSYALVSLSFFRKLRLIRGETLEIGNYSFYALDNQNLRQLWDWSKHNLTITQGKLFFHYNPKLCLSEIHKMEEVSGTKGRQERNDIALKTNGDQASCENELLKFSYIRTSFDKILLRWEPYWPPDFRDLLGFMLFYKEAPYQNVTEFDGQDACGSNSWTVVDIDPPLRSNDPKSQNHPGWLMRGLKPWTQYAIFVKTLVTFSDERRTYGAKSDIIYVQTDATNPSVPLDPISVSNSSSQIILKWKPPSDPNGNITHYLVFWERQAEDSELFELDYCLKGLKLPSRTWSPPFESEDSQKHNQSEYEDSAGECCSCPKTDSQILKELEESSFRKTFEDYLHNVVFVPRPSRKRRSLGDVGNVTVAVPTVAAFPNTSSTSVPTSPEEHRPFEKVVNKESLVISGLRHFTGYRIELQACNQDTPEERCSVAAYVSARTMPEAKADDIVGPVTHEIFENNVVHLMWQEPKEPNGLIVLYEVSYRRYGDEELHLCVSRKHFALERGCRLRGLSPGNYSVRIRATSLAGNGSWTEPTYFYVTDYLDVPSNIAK
Experiment: phage ELISA
OBSERVATION TYPE: IR/IGF-1R ratio comparison
Answer field: number only, no words.

What the record says about GCEVIVEEGDSADPFYHKLSELCQGS [B6Hα-2-D1-IR] : IR/IGF-1R ratio comparison is 0.2

What the record says about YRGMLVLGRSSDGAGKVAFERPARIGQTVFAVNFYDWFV [A6L-0-E6-IR] : IR/IGF-1R ratio comparison is 0.1

What the record says about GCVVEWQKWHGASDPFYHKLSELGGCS [B6Hα-3-F10-IR] : IR/IGF-1R ratio comparison is 0.2

What the record says about RCEEKQAEVGPSSDPFYHKMSELLGCR [B6Hα-3-E9-IR] : IR/IGF-1R ratio comparison is 0.1

What the record says about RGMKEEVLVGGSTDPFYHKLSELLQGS [B6Hα-3-F11-IR] : IR/IGF-1R ratio comparison is 0.1

What the record says about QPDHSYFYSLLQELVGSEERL [20E2B-4-F9-IGFR] : IR/IGF-1R ratio comparison is 0.1
